Record form. Attribute: inhibition. Fill in for each entry.
Experiment: PhoP-dependent GFP reporter repression – Salmonella Typhimurium, primary screen (AID 1863);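 note: 0% = low Mg2+ inducing control and 100% = high Mg2+ repressing control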
Conditions: S. Typhimurium PhoP-regulated promoter GFP reporter, 4 h; at 50 µM; hits give high values
The whole screen tested about 300,000 compounds, of which about 480 (0.16%) were called active. Only a sample is shown. Measured potencies and affinities stand elsewhere.
One number for each entry, in %.

{"molecule": "O=C(O)CSc1cc(NS(=O)(=O)c2ccc(Br)cc2)c2ccccc2c1O", "value_kind": "inhibition", "unit_text": "%", "experimental_result": 0.22}
{"molecule": "COc1ccc(S(=O)(=O)N2CCCCCC2)cc1N(C)S(=O)(=O)c1ccc(C)cc1", "value_kind": "inhibition", "unit_text": "%", "experimental_result": -9.69}
{"molecule": "Oc1ccccc1/C=N/Nc1ncc(Br)cn1", "value_kind": "inhibition", "unit_text": "%", "experimental_result": -2.93}
{"molecule": "COc1ccc(/C=N/NC(=O)Cn2nnc3ccccc32)cc1OC", "value_kind": "inhibition", "unit_text": "%", "experimental_result": -6.81}
{"molecule": "COCc1cc(=O)[nH]c(-c2ccccc2)n1", "value_kind": "inhibition", "unit_text": "%", "experimental_result": 9.5}
{"molecule": "Cc1c(NC(=O)c2ccc(S(=O)(=O)N3CCOCC3)cc2)c(=O)n(-c2ccccc2)n1C", "value_kind": "inhibition", "unit_text": "%", "experimental_result": -7.51}
{"molecule": "c1ccc(Nc2nn[nH]n2)cc1", "value_kind": "inhibition", "unit_text": "%", "experimental_result": -21.5}
{"molecule": "C=C1CCC(OC(C)=O)C2(C)CCC3C(C)C(=O)OC3C12O (centres undefined)", "value_kind": "inhibition", "unit_text": "%", "experimental_result": 5.69}

Batch lookup, inhibition per entry.
1. C#CCOCCOCCOCCNc1nc(N2CCN(C(=O)CCCCCCCCCCNC(=O)[C@H](CCCCN)n3cc(CCCC(=O)O)nn3)CC2)nc(N2CCN(C(=O)CCCCCCCCCCNC(=O)[C@H](CCCN=C(N)N)n3cc(C[C@@H](C)CC)nn3)CC2)n1
2. FC(F)(F)c1ccc(N/N=C/c2cccnc2)nc1
3. COC(CNC(=O)C(=O)NCC1OCCN1C(=O)c1ccc(Cl)cc1)OC (centres undefined)

Outgoing:
1. -5.84
2. -0.8
3. 12.8

---

Record form. Attribute: inhibition. Fill in for each entry.
Test: PhoP-dependent GFP reporter repression – Salmonella Typhimurium, primary screen (AID 1863);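 note: 0% = low Mg2+ inducing control and 100% = high Mg2+ repressing control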
Settings: S. Typhimurium PhoP-regulated promoter GFP reporter, 4 h; at 50 µM; hits give high values
Screen size: about 300,000 compounds; about 480 (0.16%) were called active. Not all results are given here. Potency and affinity values are given separately.
Give bare numbers, in %.

{"compound": "Cc1ccc(S(=O)(=O)CC(=O)c2ccc([N+](=O)[O-])cc2)cc1", "value_kind": "inhibition", "experimental_result": -7.13}
{"compound": "Cc1cccc(NC2=CC(=O)CC(C)(C)C2)c1C", "value_kind": "inhibition", "experimental_result": 2.2}
{"compound": "COc1ccc(-c2cc(C(F)(F)F)n3nc(C(=O)N4CCN5CCCC5C4)cc3n2)cc1OC (stereo unspecified)", "value_kind": "inhibition", "experimental_result": 8.34}
{"compound": "C/C(=N\\NC(=O)CNC(=O)c1ccc(F)cc1)c1ccco1", "value_kind": "inhibition", "experimental_result": 4.52}
{"compound": "Cc1ccc(CN2C(=O)NC(Cc3c[nH]c4ccccc34)C2=O)cc1 (stereo unspecified)", "value_kind": "inhibition", "experimental_result": 4.26}
{"compound": "Cc1ccccc1-n1c(SCC(=O)c2cc(C)n(C)c2C)nnc1-c1ccncc1", "value_kind": "inhibition", "experimental_result": -15.5}

Batch lookup, inhibition per entry.
1. O=C(Nc1ccnn1C1CCN(C(=O)c2c(F)cccc2F)CC1)C1CC1
2. O=C(NCCCc1ccccc1)c1ccc(-n2cncn2)c([N+](=O)[O-])c1
3. O=C(c1ccc2ncsc2c1)N1CCCCC1

Outgoing:
1: -1.51; 2: 2.7; 3: 0.96

Batch lookup, inhibition per entry.
1. O=C(O)c1ccc(CNCc2ccccc2F)cc1
2. CCOC(=O)c1c(NC(=O)COC(=O)c2ccccn2)sc(C(=O)N(C)C)c1C

Outgoing:
1: 0.78; 2: 2.57
